target: S1P3 (Homo sapiens (Human), UniProt Q99500); experiment: 35S-GTPγS binding assay, S1P3 membranes; assay type: biochemical; conditions: membranes from CHO cells expressing S1P3; read-out: S1P3 GTPyS EC50
Sequence (Q99500 whole entry, species assumed): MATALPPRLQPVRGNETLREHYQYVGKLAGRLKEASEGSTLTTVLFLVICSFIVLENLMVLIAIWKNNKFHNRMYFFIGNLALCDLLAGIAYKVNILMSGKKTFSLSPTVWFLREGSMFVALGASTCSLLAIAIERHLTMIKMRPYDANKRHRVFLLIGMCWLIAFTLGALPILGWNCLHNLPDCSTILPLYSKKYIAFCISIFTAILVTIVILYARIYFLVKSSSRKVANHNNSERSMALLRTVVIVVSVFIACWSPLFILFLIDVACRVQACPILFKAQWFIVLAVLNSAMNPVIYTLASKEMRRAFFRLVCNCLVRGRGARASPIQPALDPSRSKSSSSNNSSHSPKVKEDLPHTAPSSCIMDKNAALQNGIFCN
pEC50: −log10 of the molar value.
Field: pEC50. Provide a value for each of the compounds that follow.

Reference set (2 entries):
smiles=Cc1cc(S(N)(=O)=O)ccc1NC(=O)c1cc(N(C)C2CCCCC2)ncn1 val="< 4.52"
smiles=O=C(Nc1ccc2[nH]ncc2c1)c1cc(NC2CCCCC2)ncn1 val="< 4.52"

Now look at this entry.
**Query** Report pEC50, nothing else, for this compound: "CS(=O)(=O)Nc1ccc(NC(=O)c2cc(NC3CCCCC3)ncn2)cc1"
**Result** < 4.52
